Just for reference, PubChem BioAssay (NCI) is where these values come from.

# growth inhibition values compiled below
# ASSAY_SUMMARY: NCI Yeast Anticancer Drug Screen. Data for the mlh1 rad18 strain (AID 175)
# REPORTED_CONDITIONS: S. cerevisiae mlh1 rad18 strain growth inhibition; at 50.0 µM; active compounds read high
About 79,000 compounds went through this panel and 15% of them were active in at least one assay; those are over-represented in the sample as a whole.
Please reply with the bare figure in % and do not write the unit itself.

Here are 2 compounds together with their reported answers.
COMPOUND	growth inhibition / %
O=C(/C=C/c1cc(O)c(O)cc1O)OCCc1ccccc1	68.5
O=C1C=CC(=O)N1c1ccc2c(c1)Cc1cc(Cl)ccc1-2	68.9

INPUT: Give its growth inhibition value. Item: OCCc1c2ccccc2cc2ccccc12
OUTPUT: 59.8

INPUT: Give its growth inhibition value. Item: CN(C)c1ccccc1CCCCCCc1ccccc1N(C)C
OUTPUT: 76.3

INPUT: Give its growth inhibition value. Item: Cc1cccc2c1C1c3c(C)cccc3C(O)CC1CC2O (configuration not stated)
OUTPUT: 39.8

INPUT: Give its growth inhibition value. Item: CCOC(=O)N/N=C/c1ccc([N+](=O)[O-])o1
OUTPUT: 94

###

# ASSAY_SUMMARY: NCI Yeast Anticancer Drug Screen. Data for the cln2 rad14 strain (AID 165);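 also: 0% = growth equal to vehicle treated cultures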
# REPORTED_CONDITIONS: S. cerevisiae cln2 rad14 strain, at 50.0 µM, active compounds read high
About 79,000 compounds went through this panel and 15% of them were active in at least one assay; those are over-represented in the sample as a whole.
Category scheme (growth inhibition): b0 = under 40%, b1 = from 40% up to 80%, b2 = 80% and over

COMPOUND	LABEL_CLASS
CCCC/C(=N/Nc1ccc([N+](=O)[O-])cc1)C(=O)O	b0
CCCSc1n[nH]c(=S)s1	b0
CN1CCCN(C)C1c1cc([N+](=O)[O-])ccc1O	b2
O=C(CNc1ccccc1[N+](=O)[O-])Nn1c(-c2ccccc2)nc2ccccc2c1=O	b0
CCc1cccc(C)c1NC(=O)C(=O)CC(=O)c1ccccc1Cl	b0

INPUT: Entry O=[N+]([O-])c1ccccc1C(c1ccc2ccccc2c1O)N1CCOCC1 (stereo not drawn) belongs to which category?
OUTPUT: b2

INPUT: Entry CC/C(C)=N/OC(=O)Nc1ccccc1 belongs to which category?
OUTPUT: b0

INPUT: Entry CCc1nc2c(O)ccc(O)c2nc1C belongs to which category?
OUTPUT: b1

INPUT: Entry CCCCCCCCCCCCCCCC[NH][Ge]([NH]CCCCCCCCCCCCCCCC)([NH]CCCCCCCCCCCCCCCC)[NH]CCCCCCCCCCCCCCCC belongs to which category?
OUTPUT: b2

INPUT: Entry O=C(O)Cc1ccc2ccccc2c1-c1ccccc1 belongs to which category?
OUTPUT: b2

INPUT: Entry CCC[n+]1ccnc2ccccc21 belongs to which category?
OUTPUT: b0

INPUT: Entry Cc1ccc(C2=Nc3c(c(C)nn3-c3ccccc3)N=C(C(=O)O)C2)cc1 belongs to which category?
OUTPUT: b2

INPUT: Entry OC(Cc1ccccc1)(Cc1ccccc1)c1ccccc1 belongs to which category?
OUTPUT: b2

INPUT: Entry Cc1c2c(c(C)c3c1OC(C)(C)CC3)OC(C)(C)CC2 belongs to which category?
OUTPUT: b1

INPUT: Entry Cc1c2cnccc2c(C)c2c1c1ccccc1n2CCOC(=O)c1ccccc1 belongs to which category?
OUTPUT: b1

INPUT: Entry Clc1nc(Cl)c(Cc2ccccc2)c(Cl)n1 belongs to which category?
OUTPUT: b2

INPUT: Entry Cc1ccc(S(=O)(=O)NCCCSCCO)cc1 belongs to which category?
OUTPUT: b1

INPUT: Entry CC(=O)N(C)c1ccc2c(c1)Cc1ccccc1-2 belongs to which category?
OUTPUT: b0

INPUT: Entry CN1C(=O)c2cccc3cc([N+](=O)[O-])cc(c23)C1=O belongs to which category?
OUTPUT: b1
